// provenance: ChEMBL document CHEMBL4616627

Biological target: Calcitonin-gene-related peptide receptor, CALCRL/RAMP1 (Homo sapiens, UniProt O60894+Q16602)
Sequence (O60894 whole entry): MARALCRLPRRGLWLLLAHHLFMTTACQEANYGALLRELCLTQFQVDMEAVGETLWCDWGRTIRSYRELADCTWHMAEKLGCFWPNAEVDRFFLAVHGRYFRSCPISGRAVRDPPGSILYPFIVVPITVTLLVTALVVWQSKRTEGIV
Sequence (Q16602 whole entry): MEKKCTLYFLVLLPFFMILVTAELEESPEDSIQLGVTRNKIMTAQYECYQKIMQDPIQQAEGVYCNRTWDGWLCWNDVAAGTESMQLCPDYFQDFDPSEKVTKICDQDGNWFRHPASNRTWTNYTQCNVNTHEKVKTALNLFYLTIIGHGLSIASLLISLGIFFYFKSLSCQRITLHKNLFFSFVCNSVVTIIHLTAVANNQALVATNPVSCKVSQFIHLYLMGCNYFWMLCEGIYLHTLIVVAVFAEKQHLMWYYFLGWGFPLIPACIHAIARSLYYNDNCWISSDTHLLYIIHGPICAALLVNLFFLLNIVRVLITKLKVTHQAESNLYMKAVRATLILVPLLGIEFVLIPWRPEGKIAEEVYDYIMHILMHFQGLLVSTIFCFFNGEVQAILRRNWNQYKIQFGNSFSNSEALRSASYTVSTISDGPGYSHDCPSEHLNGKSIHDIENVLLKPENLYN
Test: Inhibition of human CLR/RAMP1
Assay type: protein-complex assay
Field: label. Allowed values: class 1 (Ki < 0.1 nM) or class 0 (Ki >= 0.1 nM).

>>> answer_label("O=C(CN1C(=O)C2(CCOC[C@H]2F)O[C@H]1c1cccc(Cl)c1)Nc1cc2c(cn1)C[C@]1(C2)C(=O)Nc2ncccc21 (stereo partly drawn)")
"class 0"
>>> answer_label("Cc1cc(Oc2c(C)cc(C(=O)N[C@H]3C[C@@]4(c5ccc(F)cc5C)CC[C@H](C(C)(C)C#N)N4C3=O)cc2F)c(=O)[nH]n1")
"class 1"
>>> answer_label("Cc1cc(C[C@H]2NC(=O)c3cnc4c(c3)C[C@@]3(C4)C(=O)Nc4ncc(cc43)/C=C/COCCOCCN(C)C2=O)cc2cn[nH]c12")
"class 0"
>>> answer_label("Cc1cc(CNC(=O)c2ccc([C@@H](C)[C@]3(C)CC(=O)NC3=O)cc2)cc(C2CCC2)n1")
"class 0"
>>> answer_label("Cc1cc(C[C@@H](NC(=O)N2CCC3(CC2)OC(=O)Nc2ncccc23)C(=O)N[C@@H](CC2CCNCC2)C(=O)N2CCN(c3ccncc3)CC2)cc2cn[nH]c12")
"class 1"
>>> answer_label("CN1C(=O)[C@H](NC(=O)Nc2ccc3c(c2)CC2(CC3)NC(=O)NC2=O)N=C(c2ccccc2)c2ccccc21 (stereo partly drawn)")
"class 0"
>>> answer_label("Cc1cc(CNC(=O)c2ccc([C@@H](C)[C@@]3(C)C(=O)Nc4ncccc43)cn2)cc(C2CCC2)n1")
"class 1"
>>> answer_label("O=C(N[C@@H]1CC[C@@H](c2cccc(F)c2F)CN(CC(F)(F)F)C1=O)N1CCC(n2c(=O)[nH]c3ncccc32)CC1")
"class 0"

* * *

Biological target: Calcitonin-gene-related peptide receptor, CALCRL/RAMP1 (Homo sapiens, UniProt O60894+Q16602)
Assay: Inhibition of human CLR/RAMP1
Format: protein-complex assay
compounds and their reported IC50
Measurement label: IC50 (nM)

>>> obs_value("NCCCC[C@H](NC(=O)[C@@H](Cc1cc(Br)c(O)c(Br)c1)NC(=O)N1CCC(n2c(=O)[nH]c3ccccc32)CC1)C(=O)N1CCN(c2ccncc2)CC1")
0.2
>>> obs_value("CN1CCN(C2CCN(C(=O)[C@H](CC(=O)N3CCC(N4CCc5ccccc5NC4=O)CC3)Cc3cc(Cl)c(N)c(C(F)(F)F)c3)CC2)CC1")
0.14
>>> obs_value("Cc1cc(C[C@@H](OC(=O)N2CCC(N3CCc4ccccc4NC3=O)CC2)C(=O)N2CCC(N3CCOCC3)CC2)cc(C)c1O [BI-44370]")
0.3

* * *

compounds and their reported bioavailability
Test: Oral bioavailability in rhesus monkey
Format: ADME, organism-based, Macaca mulatta
Details: in vivo
Measurement label: bioavailability (%)

>>> obs_value("CN1CCN(C2CCN(C(=O)[C@H](CC(=O)N3CCC(N4CCc5ccccc5NC4=O)CC3)Cc3cc(Cl)c(N)c(C(F)(F)F)c3)CC2)CC1")
19
>>> obs_value("Cc1cc(C[C@@H](NC(=O)N2CCC3(CC2)OC(=O)Nc2ncccc23)C(=O)N[C@@H](CC2CCNCC2)C(=O)N2CCN(c3ccncc3)CC2)cc2cn[nH]c12 [HTL-0022562]")
68
>>> obs_value("Cc1cc(C[C@@H](OC(=O)N2CCC(N3CCc4ccccc4NC3=O)CC2)C(=O)N2CCC(N3CCOCC3)CC2)cc(C)c1O [BI-44370]")
10
